Entry source: the domain aggregation screens of Martell et al. (2025)

Experiment: soluble fraction after stress (log2 fold change); higher = more stays soluble; pooled small domains, quantitative proteomics;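 further: 20 min heating vs room temperature control held 20 min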
Conditions: stress: 75 degC
quantity: soluble fraction (log2)

| biosequence | result |
| --- | --- |
| HMYLGRKATLLSSISGEKMGNAEVLADGNLMSIYVKSLTGEPLSYGSTVLIIKHSEDQNFYLVQN | -3.54 |
| HMKSFIWKQYTVQITKKNVKNTNVRIKRDNPHVILMSIPYSATYKAGLLALETPHIRHWLDNYERKLKQ | -1.45 |
| HMGELGPGSRGQAVRALQERLMALGFPLARFGADGIFGRETTGALRAFQHVAGLSPTGLGDHETLKWLGII | -1.33 |
| HMNPDDEMLLTYLTKLLVDKQFIVNSNDIFEYILRRVDRTYDGIYDIVSKLDVLSLEKKRQLTIPLIKEI | 0.288 |
| HMLPLGSNEYETAVIKHLASGVQDADEIQRLTGIDQTSLNTALTMLELAGTIRPLGNNHWTL | 0.459 |
| HMTKASEELYFRLKEELGTGVIVEHKKYGEGVVTQLDDRLVHIMFQDDTLRMMDLKILANAGLLKVK | -1.57 |
| HMKTVPNVEGEKDGTAQSAIESAGLKVGKVTYQYDDNTSKGLVISQSVKGGEKVKPNTAIDLVVSNGPK | -0.117 |
| HMQDEAQLSMSNKYIFEGNSIVKDNFIEAEKKYRLGVSAKPNNAVGSYNLANAYYNSKLYDEAMLRLL | 0.379 |
| HMRRVRRTRRLLQDGLLGLMQHKAVADISVKELAEAADVARATVYVHFKDPADVLHQLEQGLY | 0.091 |
| HMVEVPEQLRDLLERSIEDLAELSVRSRNSLQKENIQTLGDLVQRTEEEMLGIENFGKKSLTEIAAFL | -0.217 |
| HMTHPQVEAYLDDLARMLADIDPGERDDILASVREHLDAEIAAGHGSDAVVNATLLRLGPPEQVAAAARTN | -0.0131 |
| HMNVNSQQINDLEKSIQKFFDKDIKNYLNQNLSNDRMISKNEIDKIILLYYGSDKEPTLDEIKSIFN | -0.216 |
| HMFTFEDMDKFESLLTTGLTDVQRRIYSLVTHDGKEYDLIAETLGISVEAVRMHMSRARKKIRENYKKID | -3.38 |
| HMAEPIAAGKYTVSTSGSVLNMRVSPDADSQVLEKIPNGTIVEVTKSVLGWAYVTYNSAQGWVSSAYLV | -1.62 |
| HMLTKSVLGNQIKVLRLEKGLSQEEFGAPVDLSRSAVSQIESGQMYPSLESIGKIVKYYSTSWDNLVG | -0.846 |
| HMKKSGFFSAGDRIQLTDNKGRQYSFNITEGKEFHTHQGFIKHDDLIGMPEGSVVSINSTTGVVQKFMAF | 0.32 |
| HMYNNDEIEKIQTMYNAIYQLNDIEKALIMLFLEDKSYKEIAEIMGISEGNARIKMMRTKDKLKNLISKN | -0.527 |
| HMLQIGDEEFIENIVKQVIDENQKAVDDYKKGKEKVMAFLIGQVMKKTKGKVNSEIVEKTIKKL | -0.211 |
| HMDAYMIGHNIAKWRKEKGMTQDQLAEHLSVSGQAVSKWENGASLPDIAILPKLAEIFDVTMDQLFSR | 0.0534 |
| HMQFLKPQDVLFLLKLVVLKGPASIFPAVPESLGLSKAEVHNSAKRVRGARLLPHDSWNPLRKNLLEFL | -0.488 |
| HMTIATLGERIRKLRKERGLTLAELAGDKLSKGMLSLIENNRAKPSMESLEYIAKRLGVEPAELLE | 0.0696 |
| HMVTEKNALTIEIEDLTKRFGNQRESLLPILQEVQLKHGHISDFAQQEIARLLDIHPVEVYGVVTFFSFLS | -3 |
| HMDAEVEHLFRIIAELKEKNVAIIYISHKMDEIFRISDDITVYRDGEYIATDRAENLNVDKVIQLMVGREV | -0.429 |
| HMDQILIHLKEGIDVTDVQPMLKALDLNVRMFNRDKNIIVISVLNRELDAIPQTIAALRPWEELFDSA | 0.171 |
| HMRTGLSGMIGEIGIVKQAIDPEGKVAVHGELWKARADVALAAGQTVRVVAVDGLTMTVEATDSK | -0.661 |
| HMSRGTRIDPNWQPSPEDRALARAEGFSDPEIDREALQFRDYWLGASGSNAVKLDWSATWRNWVRRAATNF | -0.396 |
| HMETPEIPGLTPRQVEIMLLVGKGYSNKEIARFLTISPETVKTHLKEVFLRFGLRNRVEAIDFTRQNGL | -0.656 |
| HMRMETRILTADESGIRLDAFLASRLAVSRSLAASLIDDGNVTLNGTVPKKKTAVNVGDILEVAMP | -0.987 |
| HMSEYLDIHMAMEKLNRKEQLFVHLRFYEGLTQSEIAQRLFTSQVQISRLEKSVLEKMRQILSK | -2.2 |
| HMGSQELIQLGERIRQKRKDSHLTQETFAEKAGISVNTVSRIEGGQAAMSIEIFAKLVEILDADANELLG | -1.39 |
| HMSINQTIEGKKQGYWIIYGNMRNLQEYLSNEVIEEGQFKNSRKEGVWRKYFPGGQMKSEITYINGRP | -0.266 |
| HMPNPSAGRVHIDALLPFDRVEVTDMQGSLLLDHSFSPRRAVDLDLNARGTLLYTLWSKGHLLGKGRVVR | -0.606 |
| HMSILYNAVKGTLVSSGALTADSWYKISSFGTASALPALKVGSIFKTPEGAGDAITLASGDSVYPLTLT | -1.28 |
